Target: Carbonic anhydrase 1 (Homo sapiens, UniProt P00915)
Sequence (P00915 whole entry): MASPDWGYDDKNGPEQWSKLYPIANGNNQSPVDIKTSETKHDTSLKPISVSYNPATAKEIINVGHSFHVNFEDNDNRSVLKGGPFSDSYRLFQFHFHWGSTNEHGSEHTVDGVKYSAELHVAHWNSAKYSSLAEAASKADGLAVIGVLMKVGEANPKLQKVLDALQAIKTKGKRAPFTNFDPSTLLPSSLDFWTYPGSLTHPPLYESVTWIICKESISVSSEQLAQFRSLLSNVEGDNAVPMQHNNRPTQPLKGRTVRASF
Experiment: Inhibition of recombinant human carbonic anhydrase 1 incubated for 15 mins prior to testing measured for 10 to 100 secs by phenol red-based stopped-flow CO2 hydration assay
Measurement Type: pKi
Numbers only, as −log10 of the molar value.

COc1cc(-c2ccnc(N3CCN(C(=O)Nc4ccc(OS(N)(=O)=O)cc4)CC3)n2)cc(OC)c1OC: 5.28
NS(=O)(=O)Oc1ccc(NC(=O)N2CCN(c3ccc(Cl)c(Cl)c3)CC2)cc1: 6.04
Cc1cccc(-c2ccnc(N3CCN(C(=O)Nc4ccc(OS(N)(=O)=O)cc4)CC3)n2)c1: 5.39
NS(=O)(=O)Oc1ccc(NC(=O)N2CCN(c3nccc(-c4ccccc4)n3)CC2)cc1: 5.63
NS(=O)(=O)Oc1ccc(NC(=O)N2CCN(Cc3cc4ccccc4o3)CC2)cc1: 6.12

For the 3 compounds below, give their pKi values.
1. Cc1ccccc1N1CCN(C(=O)Nc2ccc(OS(N)(=O)=O)cc2)CC1
2. CCCCCCCCN1CCN(C(=O)Nc2ccc(OS(N)(=O)=O)cc2)CC1
3. NS(=O)(=O)Oc1ccc(NC(=O)N2CCN(c3nccc(-c4cccc(C(F)(F)F)c4)n3)CC2)cc1

*A*
1. 6.16
2. 6.12
3. 5.46

Please state pKi for every compound in the list that follows.
1. COc1ccc(-c2ccnc(N3CCN(C(=O)Nc4ccc(OS(N)(=O)=O)cc4)CC3)n2)cc1
2. NS(=O)(=O)Oc1ccc(NC(=O)N2CCN(c3nccc(-c4cccc(Br)c4)n3)CC2)cc1
3. CCCCCCCCCCN1CCN(C(=O)Nc2ccc(OS(N)(=O)=O)cc2)CC1

*A*
1. 5.41
2. 5.11
3. 6.17

---

Target: Carbonic anhydrase 9 (Homo sapiens)
Assay: Inhibition of recombinant human carbonic anhydrase 9 incubated for 15 mins prior to testing measured for 10 to 100 secs by phenol red-based stopped-flow CO2 hydration assay
Measurement Type: pKi
Give bare numbers, as −log10 of the molar value.

Please go through the list and note pKi for each molecule.
1. NS(=O)(=O)Oc1ccc(NC(=O)N2CCN(c3nccc(-c4ccccc4)n3)CC2)cc1
2. COc1ccc(-c2ccnc(N3CCN(C(=O)Nc4ccc(OS(N)(=O)=O)cc4)CC3)n2)cc1
3. NS(=O)(=O)Oc1ccc(NC(=O)N2CCN(Cc3cc4ccccc4o3)CC2)cc1
4. Cc1ccccc1N1CCN(C(=O)Nc2ccc(OS(N)(=O)=O)cc2)CC1
5. CCCCCCCCCCN1CCN(C(=O)Nc2ccc(OS(N)(=O)=O)cc2)CC1

*A*
3.81
4.50
4.49
4.53
4.49

---

Biological target: Carbonic anhydrase 4 (Homo sapiens, UniProt P22748)
Sequence (P22748 whole entry): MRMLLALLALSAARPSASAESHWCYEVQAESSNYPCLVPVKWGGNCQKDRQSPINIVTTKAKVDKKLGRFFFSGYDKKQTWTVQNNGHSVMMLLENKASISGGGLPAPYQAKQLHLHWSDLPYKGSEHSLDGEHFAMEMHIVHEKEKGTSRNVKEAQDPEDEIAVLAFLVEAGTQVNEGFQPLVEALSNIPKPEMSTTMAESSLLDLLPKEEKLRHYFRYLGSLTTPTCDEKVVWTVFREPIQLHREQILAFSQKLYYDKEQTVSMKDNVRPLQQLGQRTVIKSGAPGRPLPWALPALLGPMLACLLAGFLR
Test: Inhibition of recombinant human carbonic anhydrase 4 incubated for 15 mins prior to testing measured for 10 to 100 secs by phenol red-based stopped-flow CO2 hydration assay
Measurement Type: pKi
Give bare numbers, as −log10 of the molar value.

Consider the following illustrative entries.
COc1cccc(N2CCN(C(=O)Nc3ccc(OS(N)(=O)=O)cc3)CC2)c1: 6.00
Cc1cccc(-c2ccnc(N3CCN(C(=O)Nc4ccc(OS(N)(=O)=O)cc4)CC3)n2)c1: 5.88

For every listed record, write down its pKi.
1. Cc1cccc(N2CCN(C(=O)Nc3ccc(OS(N)(=O)=O)cc3)CC2)c1C
2. COc1ccc(N2CCN(C(=O)Nc3ccc(OS(N)(=O)=O)cc3)CC2)cc1
3. COc1cc(-c2ccnc(N3CCN(C(=O)Nc4ccc(OS(N)(=O)=O)cc4)CC3)n2)cc(OC)c1OC

*A*
1. 5.96
2. 5.79
3. 6.55

---

Molecular target: Carbonic anhydrase 4 (Homo sapiens)
Experiment: Inhibition of recombinant human carbonic anhydrase 4 incubated for 15 mins prior to testing measured for 10 to 100 secs by phenol red-based stopped-flow CO2 hydration assay
Label key: TRUE means Ki under 800 nM; FALSE means Ki of 800 nM or more.

Solved cases below.
CCCCCCCCCCN1CCN(C(=O)Nc2ccc(OS(N)(=O)=O)cc2)CC1: FALSE
NS(=O)(=O)Oc1ccc(NC(=O)N2CCN(c3nccc(-c4cccc(Br)c4)n3)CC2)cc1: FALSE
NS(=O)(=O)Oc1ccc(NC(=O)N2CCN(c3ccc(Cl)c(Cl)c3)CC2)cc1: FALSE
NS(=O)(=O)Oc1ccc(NC(=O)N2CCN(c3nccc(-c4cccc(C(F)(F)F)c4)n3)CC2)cc1: TRUE
CCCCCCCCN1CCN(C(=O)Nc2ccc(OS(N)(=O)=O)cc2)CC1: FALSE

*Q* Here's an entry: "Cc1ccccc1N1CCN(C(=O)Nc2ccc(OS(N)(=O)=O)cc2)CC1" . Is its Ki below 800 nM?
*A* TRUE

*Q* Hello, is Ki of the following molecule strictly smaller than 800 nM? "NS(=O)(=O)Oc1ccc(NC(=O)N2CCN(c3ccc(Cl)cc3)CC2)cc1"
*A* FALSE

*Q* Determine if "NS(=O)(=O)Oc1ccc(NC(=O)N2CCN(c3nccc(-c4ccccc4)n3)CC2)cc1" shows Ki strictly lower than 800 nM.
*A* FALSE

*Q* Report whether reported Ki is lower than 800 nM (strictly) for "COc1ccc(-c2ccnc(N3CCN(C(=O)Nc4ccc(OS(N)(=O)=O)cc4)CC3)n2)cc1"
*A* TRUE

---

Target: Carbonic anhydrase 9 (Homo sapiens, UniProt Q16790)
Test: Inhibition of recombinant human carbonic anhydrase 9 incubated for 15 mins prior to testing measured for 10 to 100 secs by phenol red-based stopped-flow CO2 hydration assay
Exercise: for every item that follows, state its recorded pKi.
Answers are plain numbers, as −log10 of the molar value.

Here are 4 molecules together with their reported answers.
Cc1cccc(-c2ccnc(N3CCN(C(=O)Nc4ccc(OS(N)(=O)=O)cc4)CC3)n2)c1: 4.03
COc1cc(-c2ccnc(N3CCN(C(=O)Nc4ccc(OS(N)(=O)=O)cc4)CC3)n2)cc(OC)c1OC: 4.62
CCCCCCCCN1CCN(C(=O)Nc2ccc(OS(N)(=O)=O)cc2)CC1: 4.50
NS(=O)(=O)Oc1ccc(NC(=O)N2CCN(c3nccc(-c4cccc(Br)c4)n3)CC2)cc1: 4.52

Kindly consider the entry below.
*Q* Given "NS(=O)(=O)Oc1ccc(NC(=O)N2CCN(c3nccc(-c4cccc(C(F)(F)F)c4)n3)CC2)cc1" , state its recorded pKi.
*A* 4.57

---

Biological target: UniProt:P00918
Experiment: Inhibition of recombinant human carbonic anhydrase 2 incubated for 15 mins prior to testing measured for 10 to 100 secs by phenol red-based stopped-flow CO2 hydration assay
Measurement Type: log10(Ki) (log10 of the value in µM)
All values: log10 Ki [µM].

Recorded log10(Ki), per entry:
Cc1cccc(-c2ccnc(N3CCN(C(=O)Nc4ccc(OS(N)(=O)=O)cc4)CC3)n2)c1: -0.68
NS(=O)(=O)Oc1ccc(NC(=O)N2CCN(c3ccc(Cl)c(Cl)c3)CC2)cc1: -1.34
CCCCCCCCN1CCN(C(=O)Nc2ccc(OS(N)(=O)=O)cc2)CC1: -1.80
COc1ccc(-c2ccnc(N3CCN(C(=O)Nc4ccc(OS(N)(=O)=O)cc4)CC3)n2)cc1: -1.54
NS(=O)(=O)Oc1ccc(NC(=O)N2CCN(c3nccc(-c4cccc(Br)c4)n3)CC2)cc1: -0.91
COc1cc(-c2ccnc(N3CCN(C(=O)Nc4ccc(OS(N)(=O)=O)cc4)CC3)n2)cc(OC)c1OC: -2.17
NS(=O)(=O)Oc1ccc(NC(=O)N2CCN(c3nccc(-c4cccc(C(F)(F)F)c4)n3)CC2)cc1: -1.23
CCCCCCCCCCN1CCN(C(=O)Nc2ccc(OS(N)(=O)=O)cc2)CC1: -1.68

State the recorded log10(Ki) for every item in the following list.
1. Cc1ccccc1N1CCN(C(=O)Nc2ccc(OS(N)(=O)=O)cc2)CC1
2. NS(=O)(=O)Oc1ccc(NC(=O)N2CCN(Cc3cc4ccccc4o3)CC2)cc1
3. NS(=O)(=O)Oc1ccc(NC(=O)N2CCN(c3nccc(-c4ccccc4)n3)CC2)cc1

*A*
1. -1.24
2. -1.44
3. -0.15

Data origin, for the record: ChEMBL document CHEMBL4715842
